Biological target: Neuronal acetylcholine receptor; alpha4/beta2 (Rattus norvegicus, UniProt P09483+P12390)
Sequence (P09483 whole entry): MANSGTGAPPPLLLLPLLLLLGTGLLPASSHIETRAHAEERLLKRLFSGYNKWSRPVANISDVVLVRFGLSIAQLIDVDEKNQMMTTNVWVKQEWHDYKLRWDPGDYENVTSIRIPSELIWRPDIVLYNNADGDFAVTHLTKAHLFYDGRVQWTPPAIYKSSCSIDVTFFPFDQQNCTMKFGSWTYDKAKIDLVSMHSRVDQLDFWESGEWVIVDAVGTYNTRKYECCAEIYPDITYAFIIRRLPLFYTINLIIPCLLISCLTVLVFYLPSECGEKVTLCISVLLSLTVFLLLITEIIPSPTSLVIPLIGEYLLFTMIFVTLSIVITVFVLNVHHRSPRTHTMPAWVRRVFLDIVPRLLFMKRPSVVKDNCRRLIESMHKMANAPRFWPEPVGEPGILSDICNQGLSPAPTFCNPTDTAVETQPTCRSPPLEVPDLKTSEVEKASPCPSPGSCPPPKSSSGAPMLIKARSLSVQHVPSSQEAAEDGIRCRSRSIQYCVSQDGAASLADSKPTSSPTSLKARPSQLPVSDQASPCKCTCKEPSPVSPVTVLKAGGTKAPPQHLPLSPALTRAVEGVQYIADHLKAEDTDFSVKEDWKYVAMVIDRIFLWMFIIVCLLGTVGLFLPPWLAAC
Sequence (P12390 whole entry): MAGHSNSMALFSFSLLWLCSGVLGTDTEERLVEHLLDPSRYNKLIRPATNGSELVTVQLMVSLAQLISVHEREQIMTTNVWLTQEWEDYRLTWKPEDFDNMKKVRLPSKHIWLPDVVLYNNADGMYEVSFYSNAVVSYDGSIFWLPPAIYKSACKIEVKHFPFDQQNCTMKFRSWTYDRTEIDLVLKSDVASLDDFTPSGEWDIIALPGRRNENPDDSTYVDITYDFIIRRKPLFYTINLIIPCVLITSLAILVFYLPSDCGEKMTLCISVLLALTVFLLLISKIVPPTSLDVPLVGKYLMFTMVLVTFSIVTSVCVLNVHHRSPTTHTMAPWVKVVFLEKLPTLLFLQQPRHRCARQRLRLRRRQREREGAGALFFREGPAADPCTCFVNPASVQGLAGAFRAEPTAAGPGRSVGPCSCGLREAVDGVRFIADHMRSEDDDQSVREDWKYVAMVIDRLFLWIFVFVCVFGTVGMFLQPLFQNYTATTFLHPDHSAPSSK
Experiment: Antagonist activity at rat alpha4beta2 nAChR expressed in xenopus oocytes assessed as inhibition of Ach- induced response at -70 mV holding potential preincubated for 5 mins followed by Ach stimulation by voltage-clamp based electrophysiological method
Where a SMILES comes first, the peptide text is derived from it. Bridges are numbered along the chain shown (N, C = ends).
Measure: IC50

{"columns": ["Compound", "IC50"],
 "data": [
  ["C[C@@H]1NC(=O)[C@@H]2CSSC[C@H](NC(=O)[C@@H](N)CCC(N)=O)C(=O)N[C@@H](CSSC[C@@H](C(=O)N[C@@H](CCCNC(=N)N)C(=O)O)NC(=O)[C@H](Cc3cnc[nH]3)NC(=O)[C@H](CCC(=O)O)NC(=O)[C@H](Cc3cnc[nH]3)NC1=O)C(=O)N[C@@H](CO)C(=O)N[C@@H](CC(N)=O)C(=O)N1CCC[C@H]1C(=O)N1CCC[C@H]1C(=O)N2 (H-QCCSNPPCAHEHCR-OH; disulfide 2-8, 3-13)", "> 10 µM"]
]}

# context switch: different compound, same IC50
Look up IC50 of C[C@@H]1NC(=O)[C@@H]2CSSC[C@H](NC(=O)CN)C(=O)N[C@@H](CSSC[C@@H](C(N)=O)NC(=O)[C@H](Cc3cnc[nH]3)NC(=O)[C@H](CCC(=O)O)NC(=O)[C@H](Cc3cnc[nH]3)NC1=O)C(=O)N[C@@H](CO)C(=O)N[C@@H](CC(N)=O)C(=O)N1CCC[C@H]1C(=O)N1CCC[C@H]1C(=O)N2 (H-GCCSNPPCAHEHC-NH2; disulfide 2-8, 3-13) and report it.
> 10 µM

###

The following compounds are shown together with reported pIC50 values.
Molecular target: Neuronal acetylcholine receptor; alpha4/beta2 (Rattus norvegicus, UniProt P09483+P12390)
Assay: Antagonist activity at rat alpha4beta2 nAChR expressed in xenopus oocytes assessed as inhibition of Ach- induced response at -70 mV holding potential preincubated for 5 mins followed by Ach stimulation by voltage-clamp based electrophysiological method
pIC50: −log10 of the molar value. Where a SMILES comes first, the peptide text is derived from it. Bridges are numbered along the chain shown (N, C = ends).

Reference set, count: 2
{"columns": ["Compound", "Assay Result"],
 "data": [
  ["C[C@@H]1NC(=O)[C@@H]2CSSC[C@H](NC(=O)CN)C(=O)N[C@@H](CSSC[C@@H](C(=O)N[C@@H](CCCNC(=N)N)C(=O)O)NC(=O)[C@H](Cc3cnc[nH]3)NC(=O)[C@H](CCC(=O)O)NC(=O)[C@H](Cc3cnc[nH]3)NC1=O)C(=O)N[C@@H](CO)C(=O)N[C@@H](CC(N)=O)C(=O)N1CCC[C@H]1C(=O)N1CCC[C@H]1C(=O)N2 (H-GCCSNPPCAHEHCR-OH; disulfide 2-8, 3-13)", "< 5.00"],
  ["C[C@@H]1NC(=O)[C@@H]2CSSC[C@H](NC(=O)[C@@H](N)CCC(N)=O)C(=O)N[C@@H](CSSC[C@@H](C(N)=O)NC(=O)[C@H](Cc3cnc[nH]3)NC(=O)[C@H](CCC(=O)O)NC(=O)[C@H](Cc3cnc[nH]3)NC1=O)C(=O)N[C@@H](CO)C(=O)N[C@@H](CC(N)=O)C(=O)N1CCC[C@H]1C(=O)N1CCC[C@H]1C(=O)N2 (H-QCCSNPPCAHEHC-NH2; disulfide 2-8, 3-13)", "< 5.00"]
]}

# context switch: different compound, same pIC50
Look up pIC50 of C[C@@H]1NC(=O)[C@@H]2CSSC[C@H](N)C(=O)N[C@@H](CSSC[C@@H](C(N)=O)NC(=O)[C@H](Cc3cnc[nH]3)NC(=O)[C@H](CCC(=O)O)NC(=O)[C@H](Cc3cnc[nH]3)NC1=O)C(=O)N[C@@H](CO)C(=O)N[C@@H](CC(N)=O)C(=O)N1CCC[C@H]1C(=O)N1CCC[C@H]1C(=O)N2 (H-CCSNPPCAHEHC-NH2; disulfide 1-7, 2-12) and report it.
< 5.00

###

Target: Neuronal acetylcholine receptor; alpha3/beta4 (Rattus norvegicus) (UniProt P04757+P12392)
Test: Antagonist activity at rat alpha3beta4 nAChR expressed in xenopus oocytes assessed as inhibition of Ach- induced response at 10 uM at -70 mV holding potential preincubated for 5 mins followed by Ach stimulation by voltage-clamp based electrophysiological method
Format: cell-based
Details: Oocyte
Calls of active or inactive are those of the source. No cut-off for these calls is given here. Where a SMILES comes first, the peptide text is derived from it. Bridges are numbered along the chain shown (N, C = ends).

{"columns": ["Molecule", "inhibition"],
 "data": [
  ["C[C@@H]1NC(=O)[C@@H]2CSSC[C@H](N)C(=O)N[C@@H](CSSC[C@@H](C(N)=O)NC(=O)[C@H](Cc3cnc[nH]3)NC(=O)[C@H](CCC(=O)O)NC(=O)[C@H](Cc3cnc[nH]3)NC1=O)C(=O)N[C@@H](CO)C(=O)N[C@@H](CC(N)=O)C(=O)N1CCC[C@H]1C(=O)N1CCC[C@H]1C(=O)N2 (H-CCSNPPCAHEHC-NH2; disulfide 1-7, 2-12)", "inactive"],
  ["C[C@@H]1NC(=O)[C@@H]2CSSC[C@H](NC(=O)CN)C(=O)N[C@@H](CSSC[C@@H](C(=O)N[C@@H](CCCNC(=N)N)C(=O)O)NC(=O)[C@H](Cc3cnc[nH]3)NC(=O)[C@H](CCC(=O)O)NC(=O)[C@H](Cc3cnc[nH]3)NC1=O)C(=O)N[C@@H](CO)C(=O)N[C@@H](CC(N)=O)C(=O)N1CCC[C@H]1C(=O)N1CCC[C@H]1C(=O)N2 (H-GCCSNPPCAHEHCR-OH; disulfide 2-8, 3-13)", "inactive"]
]}

###

Biological target: Neuronal acetylcholine receptor; alpha4/beta4 (Rattus norvegicus, UniProt P09483+P12392)
Sequence (P09483 whole entry): as the sequence (P09483 whole entry) above
Sequence (P12392 whole entry): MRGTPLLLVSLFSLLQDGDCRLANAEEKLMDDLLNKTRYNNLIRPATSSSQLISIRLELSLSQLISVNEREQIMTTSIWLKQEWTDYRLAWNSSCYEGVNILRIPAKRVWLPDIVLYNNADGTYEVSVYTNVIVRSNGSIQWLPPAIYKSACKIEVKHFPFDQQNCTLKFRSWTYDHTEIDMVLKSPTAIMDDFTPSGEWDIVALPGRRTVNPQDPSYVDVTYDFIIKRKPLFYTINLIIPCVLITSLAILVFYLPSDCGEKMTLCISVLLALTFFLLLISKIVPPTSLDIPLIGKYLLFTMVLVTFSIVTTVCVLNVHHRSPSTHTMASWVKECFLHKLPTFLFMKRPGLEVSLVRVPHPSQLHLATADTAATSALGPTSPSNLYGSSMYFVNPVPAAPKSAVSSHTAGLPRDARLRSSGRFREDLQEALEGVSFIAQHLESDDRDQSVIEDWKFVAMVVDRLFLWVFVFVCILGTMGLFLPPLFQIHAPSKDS
Assay: Antagonist activity at rat alpha4beta4 nAChR expressed in xenopus oocytes assessed as inhibition of Ach- induced response at -70 mV holding potential preincubated for 5 mins followed by Ach stimulation by voltage-clamp based electrophysiological method
Where a SMILES comes first, the peptide text is derived from it. Bridges are numbered along the chain shown (N, C = ends).
Measure: IC50

Look up IC50 of C[C@@H]1NC(=O)[C@@H]2CSSC[C@H](N)C(=O)N[C@@H](CSSC[C@@H](C(N)=O)NC(=O)[C@H](Cc3cnc[nH]3)NC(=O)[C@H](CCC(=O)O)NC(=O)[C@H](Cc3cnc[nH]3)NC1=O)C(=O)N[C@@H](CO)C(=O)N[C@@H](CC(N)=O)C(=O)N1CCC[C@H]1C(=O)N1CCC[C@H]1C(=O)N2 (H-CCSNPPCAHEHC-NH2; disulfide 1-7, 2-12) and report it.
> 10 µM

###

Biological target: Neuronal acetylcholine receptor; alpha3/beta2 (Rattus norvegicus, UniProt P04757+P12390)
Sequence (P04757 whole entry): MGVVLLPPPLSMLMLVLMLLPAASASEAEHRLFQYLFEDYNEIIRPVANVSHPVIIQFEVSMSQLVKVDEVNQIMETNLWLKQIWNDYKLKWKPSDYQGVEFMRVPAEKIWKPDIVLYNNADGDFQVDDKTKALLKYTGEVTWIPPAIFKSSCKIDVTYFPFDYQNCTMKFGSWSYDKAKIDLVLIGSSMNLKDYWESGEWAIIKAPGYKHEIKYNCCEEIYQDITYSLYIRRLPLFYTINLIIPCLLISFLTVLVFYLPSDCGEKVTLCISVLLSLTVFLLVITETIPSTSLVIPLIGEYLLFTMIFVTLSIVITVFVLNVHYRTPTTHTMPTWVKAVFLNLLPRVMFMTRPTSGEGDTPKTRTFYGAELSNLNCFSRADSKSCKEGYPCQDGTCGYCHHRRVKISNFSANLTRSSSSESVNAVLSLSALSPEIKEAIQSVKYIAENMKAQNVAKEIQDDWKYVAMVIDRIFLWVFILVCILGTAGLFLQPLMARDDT
Sequence (P12390 whole entry): as the sequence (P12390 whole entry) above
Experiment: Antagonist activity at rat alpha3beta2 nAChR expressed in xenopus oocytes assessed as inhibition of Ach- induced response at -70 mV holding potential preincubated for 5 mins followed by Ach stimulation by voltage-clamp based electrophysiological method
Where a SMILES comes first, the peptide text is derived from it. Bridges are numbered along the chain shown (N, C = ends).
Measure: pIC50
Recall that pIC50 is obtained by taking minus log10 of the concentration measured in molar.

{"columns": ["Molecule", "pIC50"],
 "data": [
  ["C[C@@H]1NC(=O)[C@@H]2CSSC[C@H](NC(=O)[C@@H](N)CCC(N)=O)C(=O)N[C@@H](CSSC[C@@H](C(N)=O)NC(=O)[C@H](Cc3cnc[nH]3)NC(=O)[C@H](CCC(=O)O)NC(=O)[C@H](Cc3cnc[nH]3)NC1=O)C(=O)N[C@@H](CO)C(=O)N[C@@H](CC(N)=O)C(=O)N1CCC[C@H]1C(=O)N1CCC[C@H]1C(=O)N2 (H-QCCSNPPCAHEHC-NH2; disulfide 2-8, 3-13)", 5.81]
]}

Look up pIC50 of "C[C@@H]1NC(=O)[C@H](C)NC(=O)[C@@H]2CSSC[C@H](NC(=O)CNC(=O)CN)C(=O)N[C@@H](CSSC[C@@H](C(N)=O)NC(=O)[C@H](Cc3ccc(OS(=O)(=O)O)cc3)NC(=O)[C@H](CC(=O)O)NC(=O)[C@H](CCC(N)=O)NC(=O)[C@H](CC(N)=O)NC(=O)[C@H](CC(N)=O)NC1=O)C(=O)N[C@@H](CO)C(=O)N[C@@H](Cc1cnc[nH]1)C(=O)N1CCC[C@H]1C(=O)N[C@@H](C)C(=O)N2" and report it.
9.55
